Assay: chemical genetic growth profiling, strain panel (AID 1159580);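 further: tested at 20 µM; growth read once vehicle control cultures reached saturation at 30 °C; 1 = growth at the plate median or of vehicle wells; lower values mean less growth of the strain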
Conditions: S. cerevisiae deletion strains, growth OD, locus YDL005C, strain med2, active compounds read low
Out of some 5,500 compounds screened, about 2,000 (36%) were called active. Inconclusive results (about 18%) are left out. Some of the results follow.

| compound | normalized growth |
| --- | --- |
| CC(=O)O[C@H]1CC[C@@]2(C)C(CC[C@]3(C)C2CC=C2C4CC(C)(C)CC[C@]4(C)CC[C@]23C)C1(C)C (some centres undefined) | 0.988 |
| COc1cccc2c1C(=O)c1c(O)c3c(c(O)c1C2=O)C[C@@](O)(C(=O)CO)C[C@@H]3O[C@H]1C[C@H](N)[C@@H](O)[C@H](C)O1 | 0.951 |
| COc1cccc2c1C(=O)c1c(O)c3c(c(O)c1C2=O)C[C@@](O)(C(=O)CO)C[C@@H]3OC1C[C@H](N)[C@H](O)[C@H](C)O1 (some centres undefined) | 0.701 |
| COc1cccc2c1C(=O)c1c(O)c3c(c(O)c1C2=O)C[C@@](O)(C(C)=O)C[C@@H]3O[C@H]1C[C@H](N)[C@H](O)[C@H](C)O1 | 0.962 |

----------
Experiment: chemical genetic growth profiling, strain panel (AID 1159580)
Settings: S. cerevisiae deletion strains, growth OD, locus YJR075W, strain HOC1
About 2,000 (36%) of roughly 5,500 compounds were called active. Roughly 18% stayed inconclusive and do not appear here. Rule as the data show it: active = normalized growth mostly below about 0.91 (no sharp cut-off); inconclusive = no clear call, values can overlap the other calls; inactive = mostly above about 0.92. The list shows a part of the results.
Labels: active, inactive

| molecule | answer_label |
| --- | --- |
| NNc1nncc2ccccc12 | inactive |
| C[N+](C)(C)CCO | active |
| Cc1ccc(-c2cc(C(F)(F)F)nn2-c2ccc(S(N)(=O)=O)cc2)cc1 | inactive |
| Nc1ccccc1C(=O)CC(N)C(=O)O (configuration not stated) | inactive |
| CCCCCc1ccc(C(=O)O/N=C\c2c(Cl)cccc2Cl)cc1 | inactive |
| NC12CC3CC(CC(C3)C1)C2 | inactive |
| N#CC(C#N)=CNc1cccc(N)n1 | inactive |
| Fc1ccc(C(c2ccccc2)(c2ccccc2F)n2ccnc2)cc1 (configuration not stated) | active |
| FC(F)(F)c1cccc(CSc2n[nH]c(=S)s2)c1 | active |
| O=C(O)/C=C1\CCCc2ccccc2C1O (configuration not stated) | inactive |
| N=C(N)SCCc1ccc(CCSC(=N)N)cc1 | inactive |
| COc1ccc2c3c([nH]c2c1)C(C)=NCC3 | inactive |
| O=c1c2ccccc2nc2n1CCc1c-2[nH]c2ccccc12 | inactive |
| O=S(=O)(CCN1CCOCC1)c1ccc(Cl)cc1 | inactive |
| NC(N)=NN=Cc1c(Cl)cccc1Cl | inactive |
| N=C(N)SCCN | inactive |
| Nc1ncnc2c1ncn2C1CCCC1 | inactive |
| CCN(CC)c1ccc(NC(=O)c2c(F)cccc2F)c(N(CC)CC)n1 | inactive |
| Nc1c2ccccc2nc2ccccc12 (tested in a mixture with another compound) | active |
| CS/C(N)=N\N=C/c1c(F)cccc1Cl | inactive |
| O=C(CSCc1c(F)cccc1Cl)NC1Cc2ccccc2C1 | inactive |
| CC(=O)OC1CC(OC(C)=O)C2(C)C(CC(OC(C)=O)C3(C)C4=CC(=O)OC(=O)C4(C)CCC32)C1(C)C (configuration not stated) | inactive |
| S=c1[nH]nc(SCCSc2n[nH]c(=S)s2)s1 | inactive |
| N#C/C(NCc1cccs1)=C(\C#N)NCc1c(F)cccc1Cl | inactive |
| O=C(N/N=C\c1c(O)ccc2ccccc12)N/N=C\c1c(O)ccc2ccccc12 | inactive |
| COC(=O)c1cccc(NC(=O)CC2C(=O)NCCN2C(=O)c2cccs2)c1 (configuration not stated) | inactive |
| CCCC(CC(=O)O)(C(=O)O)c1ccccc1 (configuration not stated) | inactive |
| CC1=C[C@@H]2c3cccc4[nH]cc(c34)C[C@H]2N(C)C1 | inactive |
| O=[N+]([O-])c1ccccc1SCc1n[nH]c(=S)n1-c1cccc(C(F)(F)F)c1 | inactive |
| Cn1c(CSCC(=O)Nc2ccccc2)n[nH]c1=S | inactive |
| CO[C@@]12[C@@H]3NC3CN1C1=C(C(=O)C(N)=C(C)C1=O)[C@@H]2COC(N)=O (some centres not stated) | inactive |
| Cc1ccnc(NS(=O)(=O)c2ccc(N)cc2)n1 | inactive |
| N[C@H](C(=O)O)[C@@H]1CC(Cl)=NO1 | active |
| C[C@@H](N)Cc1cnc[nH]1 | inactive |
| COC(=O)Nc1nc2ccc(Sc3ccccc3)cc2[nH]1 | inactive |
| Nc1ccccc1C(=O)N/N=C\c1cccc2ccccc12 | inactive |
| NC(N)=N/N=C/c1c(Cl)cccc1Cl | inactive |
| CSC(=CC(=O)c1ccc(Cl)cc1)SC | active |
| Nc1c2ccccc2nc2ccccc12 | active |
| c1cc2c(cc1N=C1SCC3CCCCN13)OCO2 (configuration not stated) | inactive |
| CC(=O)OC1CC[C@@]2(C)C(CC[C@]3(C)C2CCC2C4CC(C)(C)CCC4(C(=O)O)CC[C@]23C)C1(C)C (some centres not stated) | inactive |
| O=C(CSCc1c(F)cccc1Cl)Nc1ccc(F)c(Cl)c1 | active |

----------
Examples of molecules with documented normalized growth follow.
Assay: chemical genetic growth profiling, strain panel (AID 1159580);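 further: tested at 20 µM; growth read once vehicle control cultures reached saturation at 30 °C; 1 = growth at the plate median or of vehicle wells; lower values mean less growth of the strain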
Settings: S. cerevisiae deletion strains, growth OD, locus YKR091W, strain srl3, active compounds read low
Hit rate of the full screen: of about 5,500 compounds, about 2,000 (36%) were called active. Another 18% or so got no clear call; they are omitted. Some of the results follow. Where a SMILES comes first, the peptide text is derived from it. Bridges are numbered along the chain shown (N, C = ends). [ ]: non-standard residue; d: D form. The star is where a group is joined. ξ: configuration not given here. ξDab(CH2SO3H) = NC(CCNCS(=O)(=O)O)C(=O)O; Heptanoyl(6-Me) = CC(C)CCCCC(=O)*; Dab = NCC[CH](N)C(=O)O

| molecule | normalized growth |
| --- | --- |
| OC(CCN1CCCC1)(c1ccccc1)C1CCCCC1 (stereo not drawn) | 0.992 |
| COC(=O)Nc1nc2ccc(C(=O)c3ccccc3)cc2[nH]1 | 1 |
| NNC(=O)c1ccncc1 | 1 |
| O=c1ccc2ccc(O)cc2o1 | 0.992 |
| CCC(C)C1NC(=O)C(CCNCS(=O)(=O)O)NC(=O)C(NC(=O)C(CCNCS(=O)(=O)O)NC(=O)C(NC(=O)C(CCNCS(=O)(=O)O)NC(=O)CCCCC(C)C)C(C)O)CCNC(=O)C(C(C)O)NC(=O)C(CCNCS(=O)(=O)O)NC(=O)C(CCNCS(=O)(=O)O)NC(=O)C(C(C)CC)NC1=O (stereo not drawn) ({Heptanoyl(6-Me)}-[ξDab(CH2SO3H)]T[ξDab(CH2SO3H)][Dab][ξDab(CH2SO3H)]II[ξDab(CH2SO3H)][ξDab(CH2SO3H)]T; lactam 4-C; configuration not given here) | 0.98 |
| OC(CCN1CCCCC1)(c1ccccc1)C1CC2C=CC1C2 (stereo not drawn) | 1 |
| O=c1oc2cc(O)ccc2s1 | 1.01 |
| CC(C)(Oc1ccc(CCNC(=O)c2ccc(Cl)cc2)cc1)C(=O)O | 0.996 |

----------
Assay: chemical genetic growth profiling, strain panel (AID 1159580);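 further: tested at 20 µM; growth read once vehicle control cultures reached saturation at 30 °C; 1 = growth at the plate median or of vehicle wells; lower values mean less growth of the strain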
Settings: S. cerevisiae deletion strains, growth OD, locus YOR080W, strain dia2, active compounds read low
About 2,000 (36%) of roughly 5,500 compounds were called active. Another 18% or so got no clear call; they are omitted. The list shows a part of the results.
Examples of compounds with documented normalized growth follow.

| compound | normalized growth |
| --- | --- |
| CCOP(=S)(OCC)Oc1nc(Cl)c(Cl)cc1Cl | 1 |
| CC(C)(Sc1cc(C(C)(C)C)c(O)c(C(C)(C)C)c1)Sc1cc(C(C)(C)C)c(O)c(C(C)(C)C)c1 | 0.996 |
| Nc1ccc(S(=O)(=O)c2ccc(N)cc2)cc1 | 0.984 |
| COc1c(-c2coc3cc4c(cc3c2=O)CC(OC(C)=O)C(C)(C)O4)ccc2c1C=CC(C)(C)O2 (configuration not stated) | 1.02 |
| COc1ccc2c(c1)c(CC(=O)O)c(C)n2C(=O)c1ccc(Cl)cc1 | 0.989 |
| CC(C)(Oc1ccc(CCNC(=O)c2ccc(Cl)cc2)cc1)C(=O)O | 0.983 |
| CC(C)CCCC1(C)C=Cc2c(O)c3c(c(CCC(C)C)c2O1)OC12C(CC4CC1C(C)(C)OC2(CCC(C)C(=O)O)C4O)C3=O (configuration not stated) | 1 |

----------
Test: chemical genetic growth profiling, strain panel (AID 1159580);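 further: tested at 20 µM; growth read once vehicle control cultures reached saturation at 30 °C; 1 = growth at the plate median or of vehicle wells; lower values mean less growth of the strain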
Conditions: S. cerevisiae deletion strains, growth OD, locus YDL035C, strain GPR1
Among all 5,500 compounds or so, about 2,000 (36%) were called active. Another 18% or so got no clear call; they are omitted. Rule as the data show it: active = normalized growth mostly below about 0.91 (no sharp cut-off); inconclusive = no clear call, values can overlap the other calls; inactive = mostly above about 0.92. This is one part of the list.
Labels: true = active, false = inactive

| compound | answer_label |
| --- | --- |
| COC(=O)Nc1nc2ccc(C(=O)c3ccccc3)cc2[nH]1 | false |
| COC(=O)Nc1nc2ccc(Sc3ccccc3)cc2[nH]1 | false |
| C[C@@H]1OC(O[C@H]2[C@H](OC(=O)[C@]34CCC(C)(C)CC3C3=CCC5[C@@]6(C)CC[C@H](OC7O[C@@H](C)[C@H](O[C@@H]8OC[C@@H](O)[C@H](O)[C@H]8O)[C@@H](O)[C@H]7O)C(C)(C)C6CC[C@@]5(C)[C@]3(C)CC4O)OC[C@H](O)[C@H]2O)[C@H](O)[C@H](O)[C@H]1O[C@@H]1O[C@H](CO)[C@@H](O)[C@H](O)[C@H]1O (stereo partly drawn) | true |
